Assay: Lipophilicity, log D at pH 7.4
Format: physicochemical
Conditions: buffer
Reported metric: logD
The response must contain the number and no unit.

Molecule: CNC(=O)c1ccccc1OC(C)C(=O)N1CCN(C(=O)c2ccccc2)C[C@H]1C (mixture of isomers)
logD: 1.5

Molecule: CC(Oc1cccc(-c2ccn[nH]2)c1)C(=O)N1CCN(C(=O)c2ccccc2)C[C@H]1C (mixture of isomers)
logD: 2.3

INPUT: # return recorded logD for entry Cc1c(OC(C)C(=O)N2CCN(C(=O)c3ccccc3)C[C@H]2C)cccc1-c1ncno1 (mixture of isomers)
OUTPUT: 2.1

INPUT: # return recorded logD for entry CNC(=O)c1cccc(OC(C)C(=O)N2CCN(C(=O)c3ccccc3)C[C@H]2C)c1 (mixture of isomers)
OUTPUT: 1.3

###

Tested on: Human immunodeficiency virus 1
Experiment: Antiviral activity against Human immunodeficiency virus 1 3B infected human PBMC cells by Phenosense assay
Format: functional, organism-based
Reported metric: pIC50
Scale: pIC50 equals -log10([C]), with [C] in mol/L.

INPUT: Give pIC50; test system Human immunodeficiency virus 1; compound CNC(=O)c1cc(OC)c(O[C@@H](C)C(=O)N2CCN(C(=O)c3ccccc3)C[C@H]2C)cn1 (mixture of isomers)
OUTPUT: 8.00

###

Tested on: Human immunodeficiency virus 1
Assay: Antiviral activity against Human immunodeficiency virus 1 BR92023 infected human PBMC cells by Phenosense assay
Type: functional, organism-based
Conditions: Human immunodeficiency virus 1, BR92023, PBMC
Reported metric: IC50 (nM)
Express the result in nM but write the number alone.

INPUT: Give IC50; test system Human immunodeficiency virus 1; compound CNC(=O)c1cc(OC)c(O[C@@H](C)C(=O)N2CCN(C(=O)c3ccccc3)C[C@H]2C)cn1 (mixture of isomers)
OUTPUT: 0.6

###

# microsomal CLint annotations
Test: in vitro
Conditions: human, liver microsomes

Please review the following examples before continuing.
Molecule: CC(Oc1ccc(C(=O)N(C)C)cc1)C(=O)N1CCN(C(=O)c2ccccc2)C[C@H]1C (mixture of isomers)
microsomal CLint: < 8 µL/min/mg
--
Molecule: CNC(=O)c1ccc(OC(C)C(=O)N2CCN(C(=O)c3ccccc3)C[C@H]2C)cc1 (mixture of isomers)
microsomal CLint: < 8 µL/min/mg
--
Molecule: CNC(=O)c1ccc(OC(C)C(=O)N2CCN(C(=O)c3ccccc3)C[C@H]2C)c(C)c1 (mixture of isomers)
microsomal CLint: < 8 µL/min/mg
--
Molecule: CNC(=O)c1cccc(OC(C)C(=O)N2CCN(C(=O)c3ccccc3)C[C@H]2C)c1OC (mixture of isomers)
microsomal CLint: < 8 µL/min/mg
--
Molecule: CNC(=O)c1ccc(O[C@@H](C)C(=O)N2CCN(C(=O)c3ccccc3)C[C@H]2C)c(OC)c1
microsomal CLint: < 8 µL/min/mg
--
Molecule: CC(Oc1cccc(C(=O)N(C)C)c1)C(=O)N1CCN(C(=O)c2ccccc2)C[C@H]1C (mixture of isomers)
microsomal CLint: 12 µL/min/mg
--
Molecule: Cc1c(OC(C)C(=O)N2CCN(C(=O)c3ccccc3)C[C@H]2C)cccc1-c1ncno1 (mixture of isomers)
microsomal CLint: 141 µL/min/mg
--
Molecule: CNC(=O)c1ccc(OC(C)C(=O)N2CCN(C(=O)c3ccccc3)C[C@H]2C)cc1C (mixture of isomers)
microsomal CLint: < 8 µL/min/mg

INPUT: # return recorded microsomal CLint for entry CNC(=O)c1cc(OC)c(O[C@@H](C)C(=O)N2CCN(C(=O)c3ccccc3)C[C@H]2C)cn1 (mixture of isomers)
OUTPUT: < 8 µL/min/mg

###

Assay: in vitro
Settings: human, liver microsomes
# microsomal CLint annotations
Express the result in µL/min/mg but write the number alone.

Please review the following examples before continuing.
Molecule: Cc1ccc(OC(C)C(=O)N2CCN(C(=O)c3ccccc3)C[C@H]2C)cc1C (mixture of isomers)
Reported metric: microsomal CLint
Value observed: 158
//
Molecule: CC(Oc1ccccc1C(=O)N(C)C)C(=O)N1CCN(C(=O)c2ccccc2)C[C@H]1C (mixture of isomers)
Reported metric: microsomal CLint
Value observed: 31
//
Molecule: CNC(=O)c1ccccc1OC(C)C(=O)N1CCN(C(=O)c2ccccc2)C[C@H]1C (mixture of isomers)
Reported metric: microsomal CLint
Value observed: 23

Let us examine a further case.
INPUT: # return recorded microsomal CLint for entry CC(Oc1cccc(-c2ccn[nH]2)c1)C(=O)N1CCN(C(=O)c2ccccc2)C[C@H]1C (mixture of isomers)
OUTPUT: 61

###

Experiment: Inhibition of HIV1 JRFL gp120-mediated CHO cells fusion to HeLaP4 cells by HIV LTR-beta galactosidase reporter assay
Type: cell-based
Conditions: Human immunodeficiency virus 1, JRFL
# pIC50 annotations
Scale: pIC50 equals -log10([C]), with [C] in mol/L.

Please review the following examples before continuing.
Molecule: CNC(=O)c1ccc(O[C@@H](C)C(=O)N2CCN(C(=O)c3ccccc3)C[C@H]2C)c(OC)c1
Reported metric: pIC50
Value observed: 7.77
--
Molecule: Cc1ccc(OC(C)C(=O)N2CCN(C(=O)c3ccccc3)C[C@H]2C)cc1C (mixture of isomers)
Reported metric: pIC50
Value observed: 7.00
--
Molecule: CNC(=O)c1cccc(OC(C)C(=O)N2CCN(C(=O)c3ccccc3)C[C@H]2C)c1 (mixture of isomers)
Reported metric: pIC50
Value observed: 5.85
--
Molecule: Cc1c(OC(C)C(=O)N2CCN(C(=O)c3ccccc3)C[C@H]2C)cccc1-c1ncno1 (mixture of isomers)
Reported metric: pIC50
Value observed: 7.12

Let us examine a further case.
INPUT: # return recorded pIC50 for entry CNC(=O)c1cccc(OC(C)C(=O)N2CCN(C(=O)c3ccccc3)C[C@H]2C)c1C (mixture of isomers)
OUTPUT: 4.92

###

Assay: Inhibition of HIV1 JRFL gp120-mediated CHO cells fusion to HeLaP4 cells by HIV LTR-beta galactosidase reporter assay
Assay type: cell-based
Details: Human immunodeficiency virus 1, JRFL
# IC50 annotations
Express the result in µM but write the number alone.

Please review the following examples before continuing.
Molecule: CC(Oc1cccc(Cl)c1)C(=O)N1CCN(C(=O)c2ccccc2)C[C@H]1C (stereo partly specified)
Units of measure: µM
IC50: 1
--
Molecule: CNC(=O)c1ccc(OC(C)C(=O)N2CCN(C(=O)c3ccccc3)C[C@H]2C)c(F)c1 (mixture of isomers)
Units of measure: µM
IC50: 2

Let us examine a further case.
INPUT: # return recorded IC50 for entry CNC(=O)c1ccc(OC(C)C(=O)N2CCN(C(=O)c3ccccc3)C[C@H]2C)cc1C (mixture of isomers)
OUTPUT: 1

###

Experiment: Lipophilicity, log D at pH 7.4
Format: physicochemical
Details: buffer
Reported metric: logD
The response must contain the number and no unit.

Please review the following examples before continuing.
Compound: CC(Oc1ccc(C(=O)N(C)C)cc1)C(=O)N1CCN(C(=O)c2ccccc2)C[C@H]1C (mixture of isomers)
logD: 0.9
--
Compound: CNC(=O)c1ccc(OC(C)C(=O)N2CCN(C(=O)c3ccccc3)C[C@H]2C)cc1 (mixture of isomers)
logD: 1.1
--
Compound: CC(Oc1ccccc1C(=O)N(C)C)C(=O)N1CCN(C(=O)c2ccccc2)C[C@H]1C (mixture of isomers)
logD: 1.1

INPUT: # return recorded logD for entry CNC(=O)c1cc(OC)c(O[C@@H](C)C(=O)N2CCN(C(=O)c3ccccc3)C[C@H]2C)cn1 (mixture of isomers)
OUTPUT: 0.7

INPUT: # return recorded logD for entry CNC(=O)c1cccc(OC(C)C(=O)N2CCN(C(=O)c3ccccc3)C[C@H]2C)c1OC (mixture of isomers)
OUTPUT: 1

INPUT: # return recorded logD for entry CNC(=O)c1ccc(OC(C)C(=O)N2CCN(C(=O)c3ccccc3)C[C@H]2C)c(F)c1 (mixture of isomers)
OUTPUT: 1.4

INPUT: # return recorded logD for entry `CNC(=O)c1ccc(O[C@@H](C)C(=O)N2CCN(C(=O)c3ccccc3)C[C@H]2C)c(OC)c1`
OUTPUT: 1

###

Assay: Inhibition of HIV1 JRFL gp120-mediated CHO cells fusion to HeLaP4 cells by HIV LTR-beta galactosidase reporter assay
Format: cell-based
Details: Human immunodeficiency virus 1, JRFL
# IC50 annotations
Express the result in nM but write the number alone.

Compound: CNC(=O)c1ccc(O[C@@H](C)C(=O)N2CCN(C(=O)c3ccccc3)C[C@H]2C)c(OC)n1 (mixture of isomers)
IC50 / nM: 257

INPUT: # return recorded IC50 for entry CNC(=O)c1cc(OC)c(O[C@@H](C)C(=O)N2CCN(C(=O)c3ccccc3)C[C@H]2C)cn1 (mixture of isomers)
OUTPUT: 11

INPUT: # return recorded IC50 for entry CC(Oc1cccc(-c2ccn[nH]2)c1)C(=O)N1CCN(C(=O)c2ccccc2)C[C@H]1C (mixture of isomers)
OUTPUT: 35

INPUT: # return recorded IC50 for entry CNC(=O)c1ccc(OC(C)C(=O)N2CCN(C(=O)c3ccccc3)C[C@H]2C)cc1 (mixture of isomers)
OUTPUT: 2600

INPUT: # return recorded IC50 for entry CNC(=O)c1ccc(OC(C)C(=O)N2CCN(C(=O)c3ccccc3)C[C@H]2C)cc1OC (mixture of isomers)
OUTPUT: 2700

INPUT: # return recorded IC50 for entry CNC(=O)c1ccc(OC(C)C(=O)N2CCN(C(=O)c3ccccc3)C[C@H]2C)c(C)c1 (mixture of isomers)
OUTPUT: 2900
